Kindly state growth for each of the entries shown.
Tested on: UO-31 renal
Assay: NCI-60 one-dose screen, 48 h (100 = growth as untreated, 0 = no growth, -100 = all killed)
Conditions: 10 µM unless noted
Description: Growth inhibition of the UO-31 human tumor cell line is measured as a screen for anti-cancer activity. Cells are grown in 96 well plates and exposed to the test compound for 48 hours. Compounds are tested at a single concentration, which is 10^-5 M for most compounds. The reported endpoint is percent growth (GI% or GIPRCNT), where numbers from 0 - 100% represent growth inhibition, and numbers from -100% - 0 represent cell death. For example, a value of 40 represents 60% growth inhibition. […]
About 83,000 compounds went through this panel and 20% of them were active in at least one assay; those are over-represented in the sample as a whole.
Answers are plain numbers, in %.

Each compound below has a recorded value; state its growth.
1. Cc1ccc(O)c(C(=O)O)c1
2. O=C(O)CCCCCCCCCCCCCCC(=O)O

# output
[94, 99.8]
